# PROCEDURE SUMMARY: Percent of zwitter ion formed, was determined at pH 7.4
# Assay type: ADME
Threshold 60%: Z strictly smaller gives 1.0, otherwise 0.0.

| COMPOUND | CLASS LABEL |
| --- | --- |
| CCN1CCC[C@H]1CNC(=O)c1c(OC)ccc(Cl)c1O | 0.0 |
| CCN1CCC[C@H]1CNC(=O)c1c(O)cccc1OC | 1.0 |
| CCc1cc(Cl)c(OC)c(C(=O)NC[C@@H]2CCCN2CC)c1O [ETICLOPRIDE] | 0.0 |
| COc1c(Cl)cc(Cl)c(O)c1C(=O)NC1CCN(C)CC1 | 0.0 |
| CCc1cc(Cl)c(O)c(C(=O)NC[C@@H]2CCCN2CC)c1OC | 0.0 |

Reference source: ChEMBL document CHEMBL1126809
